Some compounds, each annotated with its measured log10 Solubility.
# ASSAY NAME: Solubility in 10 mM phosphate buffer (pH 7.0)
# Type: physicochemical
MEASURED PROPERTY: log10 Solubility (log10 of the value in µg/mL)

SMILES CODE	log10 Solubility
COCCOCCOC(=O)N[C@@H](CC(C)C)C(=O)N[C@@H](Cc1ccccc1)C(=O)C(=O)NC1CC1	2.81
COCCOCCOCCOCCOCCOC(=O)N[C@@H](CC(C)C)C(=O)N[C@@H](Cc1ccccc1)C(=O)C(=O)NC1CC1	4.21
COCCOC(=O)N[C@@H](CC(C)C)C(=O)N[C@@H](Cc1ccccc1)C(=O)C(=O)NC1CC1	3.11
COCCOCCOCCOC(=O)N[C@@H](CC(C)C)C(=O)N[C@@H](Cc1ccccc1)C(=O)C(=O)NC1CC1	3.73
COCCOCCOCCOCCOC(=O)N[C@@H](CC(C)C)C(=O)N[C@@H](Cc1ccccc1)C(=O)C(=O)NC1CC1	3.92

---

# ASSAY NAME: Partition coefficient using IAM column
# Format: physicochemical
# TEST SETTINGS: IAM Fast Screening Mini-Column; Dulbecco's phosphate buffer (pH 7.4)

MOLECULE	IAM (Log k′IAM)
COCCOCCOC(=O)N[C@@H](CC(C)C)C(=O)N[C@@H](Cc1ccccc1)C(=O)C(=O)NC1CC1	1.27
CC(C)NCC(O)COc1cccc2ccccc12 (centres unmarked) [Propranolol, reference compound]	1.95
COCCOCCOCCOC(=O)N[C@@H](CC(C)C)C(=O)N[C@@H](Cc1ccccc1)C(=O)C(=O)NC1CC1	1.38
COCCOCCOCCOCCOC(=O)N[C@@H](CC(C)C)C(=O)N[C@@H](Cc1ccccc1)C(=O)C(=O)NC1CC1	1.44
COCCOC(=O)N[C@@H](CC(C)C)C(=O)N[C@@H](Cc1ccccc1)C(=O)C(=O)NC1CC1	1.20

---

Measured AUC(0-t), listed per entry.
# ASSAY NAME: Transportation rate into blood after oral administration
# Type: in vivo, Macaca fascicularis (crab-eating monkey)
# TEST SETTINGS: cynomolgus monkey, 10 mg/kg, Macaca fascicularis, plasma, read-out: AUC 0→4 hr

SMILES CODE	AUC(0-t), nM·h
COCCOC(=O)N[C@@H](CC(C)C)C(=O)N[C@@H](Cc1ccccc1)C(=O)C(=O)NC1CC1	1900
COCCOCCOCCOC(=O)N[C@@H](CC(C)C)C(=O)N[C@@H](Cc1ccccc1)C(=O)C(=O)NC1CC1	1600
COCCOCCOC(=O)N[C@@H](CC(C)C)C(=O)N[C@@H](Cc1ccccc1)C(=O)C(=O)NC1CC1	2400
COCCOCCOCCOCCOC(=O)N[C@@H](CC(C)C)C(=O)N[C@@H](Cc1ccccc1)C(=O)C(=O)NC1CC1	1600

---

Below, each of the molecules is paired with its reported Papp A→B at 10 μm value.
# ASSAY NAME: in vitro
# TEST SETTINGS: human, Caco-2

MOLECULE	Papp A→B at 10 μm
COCCOC(=O)N[C@@H](CC(C)C)C(=O)N[C@@H](Cc1ccccc1)C(=O)C(=O)NC1CC1	2.7 ×10⁻⁶ cm/s
CC(C)NCC(O)COc1cccc2ccccc12 (centres unmarked) [Propranolol, reference compound]	8.5 ×10⁻⁶ cm/s
